SYSTEM_TESTED: KRas-mediated phosphorylation of ERK in H358 cells (Homo sapiens, UniProt P01116, G12C)
Construct: pERK HTRF read-out
Sequence (P01116 1-188 isoform P01116-2 G12C): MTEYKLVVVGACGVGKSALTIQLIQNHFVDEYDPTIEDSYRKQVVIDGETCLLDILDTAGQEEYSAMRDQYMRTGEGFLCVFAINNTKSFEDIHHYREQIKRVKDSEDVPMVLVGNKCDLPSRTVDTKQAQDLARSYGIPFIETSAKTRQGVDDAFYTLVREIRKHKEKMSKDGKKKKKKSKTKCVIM
TEST_PROTOCOL: Inhibition of KRas-mediated phosphorylation of ERK (HTRF), H358 cells
Assay type: cell-based
CONDITION_CONTEXT: HTRF pERK, 3 h incubation
Quick list: log10 of IC50 per entry.
// do not treat as linear: log10 of IC50, unit nM

Worked examples, 3 compounds total:
COMPOUND: CCc1c(F)ccc2cc(O)cc(N3CCc4c(nc(OC[C@@]56CCCN5C[C@H](F)C6)nc4N4CCCC(C(=O)n5ccc(C)n5)CC4)C3)c12 (stereo partly drawn) [Example 145]
log10 of IC50: 3.45
--
COMPOUND: CCc1c(F)ccc2cc(O)cc(-c3ncc4c(N5CCC(C(=O)N(C)S(C)(=O)=O)CC5)nc(OC[C@@]56CCCN5C[C@H](F)C6)nc4c3F)c12 [Example 257]
log10 of IC50: 1.32
--
COMPOUND: C=Cc1ccn(C(=O)C2CCN(c3nc(OC[C@@]45CCCN4C[C@H](F)C5)nc4c(F)c(-c5cc(O)cc6ccc(F)c(CC)c56)ncc34)CC2)n1 [Example 66]
log10 of IC50: 3.96

Record request: log10 of IC50 value, item Cc1ccn(C(=O)CCNc2cc(O[C@@H](C)[C@@H]3CCCN3C)nc(-c3noc([C@@]4(C)CCCc5sc(N)c(C#N)c54)n3)n2)n1 [Example 318]
2.96

How about CN(CCNC(=O)n1ccnn1)c1nc(OC[C@@]23CCCN2C[C@H](F)C3)nc2c(F)c(-c3ccc(F)c4sc(N)c(C#N)c34)c(Cl)cc12 [Example 249] ?
0.30

Also CON(C)C(=O)C1CCN(c2nc(OC[C@@]34CCCN3C[C@H](F)C4)nc3c(F)c(-c4ccc(F)c5sc(N)c(C#N)c45)c(Cl)cc23)CC1 [Example 242] , if possible.
2.17

Another compound to check: N#Cc1c(N)sc2c(F)ccc(-c3c(Cl)cc4c(N5CCC[C@H](C(=O)n6ccc(C7CC7)n6)CC5)nc(OC[C@@]56CCCN5C[C@H](F)C6)nc4c3F)c12 [Example 216]
0.70

Lookup CCc1c(F)ccc2cc(O)cc(-c3ncc4c(N5CCC(C(=O)n6ccc(C)n6)CC5)nc(OC[C@@]56CCCN5C/C(=C\F)C6)nc4c3F)c12 [Example 70]
3.86

Repeat for the following compound: CCc1c(F)ccc2cc(O)cc(-c3ncc4c(N(C)CCCS(=O)(=O)n5cccn5)nc(OC[C@@]56CCCN5C[C@H](F)C6)nc4c3F)c12 [Example 230]
3.18

What do you get for CCc1c(F)ccc2cc(O)cc(-c3ncc4c(N5CCCC(C(=O)N(C)C(C)=O)CC5)nc(OC[C@@]56CCCN5C[C@H](F)C6)nc4c3F)c12 (stereo partly drawn) [Example 285] ?
3.63
